- TARGET_OR_SYSTEM: T1, hen egg-white lysozyme (HEL) (Gallus gallus, UniProt P00698)
- T1 construct: hen egg-white lysozyme (HEL); purchased Sigma
- T1 sequence (P00698 19-147): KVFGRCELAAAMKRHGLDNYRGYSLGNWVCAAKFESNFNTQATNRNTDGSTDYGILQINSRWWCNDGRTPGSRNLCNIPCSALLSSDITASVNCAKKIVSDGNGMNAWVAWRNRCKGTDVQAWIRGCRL
- ASSAY_PROTOCOL: Titration of H4S conjugates with HEL, monitored by fluorescence
- Assay type: binding
- CONDITIONS_USED: relative sensitivity of the conjugate at a fixed concentration of 0.3 µM (Equation 8), HEL, buffer C
- Experimental: The binding and fluorescence experiments were performed at equilibrium as if the preparations of conjugates were homogeneous, i. e. as if yc = 1. […] The fluorescence of the IANBD conjugates was excited at 485 nm (5 nm slit width) and its intensity measured between 520 and 550 nm (20 nm slit width) with a FP-6300 spectrofluorometer (Jasco). […]
MEASURED_ENDPOINT: sr
Write no unit; give the number alone.

[
  {
    "MOLECULE": "Lys39: H4S conjugate: residue Lys39 changed into cysteine and coupled with IANBD (SEQ ID NO: 63) (conjugate, IANBD fluorophore on Cys39) MRGSHHHHHHGSVKVKFFWNGEEKEVDTSKIVWVKRAGKSVLFIYDDNGCNGYGDVTEKDAPKELLDMLARAEREKKLN",
    "sr": 1.16
  }
]

// query Respond only with sr recorded for Ala26: H4S conjugate: residue Ala26 changed into cysteine and coupled with IANBD (SEQ ID NO: 62) (conjugate, IANBD fluorophore on Cys26) MRGSHHHHHHGSVKVKFFWNGEEKEVDTSKIVWVKRCGKSVLFIYDDNGKNGYGDVTEKDAPKELLDMLARAEREKKLN
// result 4.66

// query Respond only with sr recorded for Leu31: H4S conjugate: residue Leu31 changed into cysteine and coupled with the IANBD fluorophore (conjugate) MRGSHHHHHHGSVKVKFFWNGEEKEVDTSKIVWVKRAGKSVCFIYDDNGKNGYGDVTEKDAPKELLDMLARAEREKKLN
// result 0.17

// query Respond only with sr recorded for Lys24: H4S conjugate: residue Lys24 changed into cysteine and coupled with IANBD (SEQ ID NO: 61) (conjugate, IANBD fluorophore on Cys24) MRGSHHHHHHGSVKVKFFWNGEEKEVDTSKIVWVCRAGKSVLFIYDDNGKNGYGDVTEKDAPKELLDMLARAEREKKLN
// result 6.61

// query Respond only with sr recorded for Phe7: H4S conjugate: residue Phe7 changed into cysteine and coupled with the IANBD fluorophore (conjugate) MRGSHHHHHHGSVKVKFCWNGEEKEVDTSKIVWVKRAGKSVLFIYDDNGKNGYGDVTEKDAPKELLDMLARAEREKKLN
// result 0.22

// query Respond only with sr recorded for Trp8: H4S conjugate: residue Trp8 changed into cysteine and coupled with IANBD (SEQ ID NO: 59) (conjugate, IANBD fluorophore on Cys8) MRGSHHHHHHGSVKVKFFCNGEEKEVDTSKIVWVKRAGKSVLFIYDDNGKNGYGDVTEKDAPKELLDMLARAEREKKLN
// result 0.90

// query Respond only with sr recorded for Asp44: H4S conjugate: residue Asp44 changed into cysteine and coupled with the IANBD fluorophore (conjugate) MRGSHHHHHHGSVKVKFFWNGEEKEVDTSKIVWVKRAGKSVLFIYDDNGKNGYGCVTEKDAPKELLDMLARAEREKKLN
// result 0.49

// query Respond only with sr recorded for Tyr42: H4S conjugate: residue Tyr42 changed into cysteine and coupled with the IANBD fluorophore (conjugate) MRGSHHHHHHGSVKVKFFWNGEEKEVDTSKIVWVKRAGKSVLFIYDDNGKNGCGDVTEKDAPKELLDMLARAEREKKLN
// result 0.72

// query Respond only with sr recorded for Asn40: H4S conjugate: residue Asn40 changed into cysteine and coupled with the IANBD fluorophore (conjugate) MRGSHHHHHHGSVKVKFFWNGEEKEVDTSKIVWVKRAGKSVLFIYDDNGKCGYGDVTEKDAPKELLDMLARAEREKKLN
// result 0.07

// query Respond only with sr recorded for Lys28: H4S conjugate: residue Lys28 changed into cysteine and coupled with the IANBD fluorophore (conjugate) MRGSHHHHHHGSVKVKFFWNGEEKEVDTSKIVWVKRAGCSVLFIYDDNGKNGYGDVTEKDAPKELLDMLARAEREKKLN
// result 0.24

// query Respond only with sr recorded for Thr46: H4S conjugate: residue Thr46 changed into cysteine and coupled with the IANBD fluorophore (conjugate) MRGSHHHHHHGSVKVKFFWNGEEKEVDTSKIVWVKRAGKSVLFIYDDNGKNGYGDVCEKDAPKELLDMLARAEREKKLN
// result 0.27

// query Respond only with sr recorded for Val21: H4S conjugate: residue Val21 changed into cysteine and coupled with IANBD (SEQ ID NO: 60) (conjugate, IANBD fluorophore on Cys21) MRGSHHHHHHGSVKVKFFWNGEEKEVDTSKICWVKRAGKSVLFIYDDNGKNGYGDVTEKDAPKELLDMLARAEREKKLN
// result 3.17

Origin of measurements: patent EP2469278A1
